Origin of measurements: ChEMBL document CHEMBL1201862

System: EKVX
Test: NCI tumour cell line growth inhibition, 48 h
Activity calls are given as the source filed them. No stated cut-off is given here; in the data, active = GI50 up to about 1.1 µM and inactive = higher.
Outcomes you can answer with include only these: label 1 for active, label 0 for inactive

Example entries and their recorded answers appear below.
COC(=O)c1c(O)ccc2c1c1c(n2Cc2cc(OC)cc(OC)c2)C(=O)c2ccccc2C1=O    label 0
CS(=O)(=O)OCCN(CCOS(C)(=O)=O)c1ccc(/C=N/c2ccc(-c3csc(COc4ccccc4)n3)cc2)cc1    label 0

Ask: Test call, this compound: O=C(Cn1cc(F)c(=O)[nH]c1=O)C12CC3CC(CC(C3)C1)C2
Reply: label 0

Ask: How did this test come out for COc1cc2c(cc1OC)C1CN3CCCC3C(O)C1c1cc(OC)c(OC)cc1-2 (stereo not given) ?
Reply: label 0

Ask: What outcome does the record of this test show for CC(=O)c1cccc(NC(=O)/C(=N\NC(=S)NN)C2C(=O)Nc3ccccc3[S+]2[O-])c1 (stereo not given) ?
Reply: label 0

Ask: Please indicate how the test categorized CC12CCC3C(CCC4(O)C=CCCC34C=O)C1(O)CC(O)C2c1ccc(=O)oc1 (stereo not given) .
Reply: label 1

Ask: Called result for COc1ccc2nc3ccc(OC)cc3c(SCCCl)c2c1
Reply: label 0

Ask: Each compound tested received a call. Report the one for COc1ccc(-c2nc(-c3cc4ccccc4oc3=O)cs2)cc1 .
Reply: label 0

Ask: Just curious, what result did O=C(Nn1c(-c2ccccc2)nc2ccccc2c1=O)c1ccc(O)cc1 get here?
Reply: label 0

Ask: Please indicate how the test categorized CC1=NN(C(=O)c2ccccc2O)C(=O)/C1=C/c1ccccc1O .
Reply: label 0
